# experiment: molar heat capacity at constant pressure
# settings: 315.15 K; 101.33 kPa; Liquid; Small sample (50 mg) DSC
Threshold 400 J/K/mol. molar heat capacity at constant pressure below it: t. molar heat capacity at constant pressure at it or above: f.

[
  {
    "molecule": "c1ccccc1 [benzene]",
    "label-class": "t"
  },
  {
    "molecule": "C1CCOC1 [tetrahydrofuran]",
    "label-class": "t"
  },
  {
    "molecule": "CCCCCCCCn1cc[n+](C)c1.O=S(=O)([O-])C(F)(F)F [1-octyl-3-methylimidazolium trifluoromethanesulfonate]",
    "label-class": "f"
  },
  {
    "molecule": "CCCCn1cc[n+](C)c1.O=S(=O)([O-])C(F)(F)F [1-butyl-3-methylimidazolium trifluoromethanesulfonate]",
    "label-class": "f"
  },
  {
    "molecule": "O [water]",
    "label-class": "t"
  },
  {
    "molecule": "CCCCCCn1cc[n+](C)c1.O=S(=O)([O-])C(F)(F)F [1-hexyl-3-methylimidazolium trifluoromethanesulfonate]",
    "label-class": "f"
  }
]

Hi there! Is molar heat capacity at constant pressure for CCn1cc[n+](C)c1.O=S(=O)([O-])C(F)(F)F [1-ethyl-3-methylimidazolium trifluoromethanesulfonate] below 400 J/K/mol, do you know?
t
